Test system: THRa homodimer (NR concentration 90 nM)
measurementDescription: PBM binding z-score (relative to random genomic background probes); higher = stronger binding; sequences stand for … in GC…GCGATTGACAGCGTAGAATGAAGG
Exercise: for every item that follows, state its recorded PBM binding z-score.

response.value for "ATCTCTAGCTAAAGTTCAGTGAAAGATCGATAGA" (field: PBM binding z-score) = -0.124

response.value for "CTTGAAAGGTCGGTTGAGGTGAGTATACGGATAA" (field: PBM binding z-score) = 1.42

response.value for "TCGAGTAGGTTACCAACGGGGCATTCAGCTTTCT" (field: PBM binding z-score) = -0.794

response.value for "CATAGAGGGTCAGCTAGGCCAGAGTAGGGACGGC" (field: PBM binding z-score) = 0.171

response.value for "TCTTGTAGATCAAAGGTTAAGAAAGCCGAAGCCT" (field: PBM binding z-score) = -0.357

response.value for "CCGACTGGGGCAGACAGGTTACCATACCATCCGG" (field: PBM binding z-score) = 0.0396

response.value for "AGAATGAGGTTACCAAAGATAAGGGAAACGCTTG" (field: PBM binding z-score) = 0.618

response.value for "TGAATGAGGTTAAAGATCAGGCAACGTGGCGTCG" (field: PBM binding z-score) = 0.312

response.value for "TAGCCTAGGTCAATCAGGGGCCAGTATAGAAAGC" (field: PBM binding z-score) = 0.496

response.value for "TCGAGTAGGTTATTCGGGGCATTCAGCCAACATA" (field: PBM binding z-score) = 0.314

response.value for "TCTCGGAGGACGCGAAAGGTCAGAGCTCGACATC" (field: PBM binding z-score) = 0.235

response.value for "GCATATAGGTAATCCAAGGTGAAAGTCCGATTGT" (field: PBM binding z-score) = 1.35
